Recorded values, source patent US9850283B2.

Molecular target: LK35.2-hPD-L1 cells / PE-labeled PD-1-Ig (Homo sapiens)
Construct: expressed in transfected cells; host or cells: LK35.2 mouse B cell line
Sequence (Q9NZQ7 19-290): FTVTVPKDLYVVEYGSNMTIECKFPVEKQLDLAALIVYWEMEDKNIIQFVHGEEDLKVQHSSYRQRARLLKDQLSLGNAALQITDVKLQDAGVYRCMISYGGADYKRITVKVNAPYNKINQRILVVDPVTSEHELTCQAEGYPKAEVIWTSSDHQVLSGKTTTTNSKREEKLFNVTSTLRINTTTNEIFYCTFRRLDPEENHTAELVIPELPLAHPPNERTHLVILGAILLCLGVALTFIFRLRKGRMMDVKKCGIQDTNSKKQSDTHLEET
Assay: LK35.2-hPD-L1 cell binding high-content screening assay
Assay type: cell-based
Conditions: cell binding assay, cell line not given; cluster symbol; read-out: CBA IC50 cluster
Procedure: LK35.2-hPD-L1 Cell Binding High-Content Screening Assay. Phycoerythrin (PE) was covalently linked to the Ig epitope tag of human PD-1-Ig and fluorescently-labeled PD-1-Ig was used for binding studies with a mouse B cell line (LK35.2) stably over-expressing human PD-L1 (LK35.2-hPD-L1). Briefly, 3×10^3 LK35.2-hPD-L1 cells were seeded into 384 well plates in 20 ul of RPMI supplemented with 10% fetal calf serum and cultured overnight. […]
Positions of bridges follow the written chain, without caps; N, C: chain ends. Non-standard residues stand in square brackets, D forms with d. Residues, ends and D or L forms follow the SMILES beside them. ξ: configuration not given here. Bta = N[C@@H](Cc1csc2ccccc12)C(=O)O; NMeNle = CCCC[C@H](NC)C(=O)O; NMeM = CN[C@@H](CCSC)C(=O)O; NMeA = CN[C@@H](C)C(=O)O; Dap = NC[C@H](N)C(=O)O; ξhCys = NC(CCS)C(=O)O; ξC = NC(CS)C(=O)O
Property: IC50; scope: individual compounds
Assay metric: IC50

Compound: CCCC[C@H]1C(=O)N(C)[C@@H](COc2cccc(C)c2)C(=O)N[C@@H](CCCNC(=N)N)C(=O)N[C@H](C(=O)NCC(N)=O)CSCC(=O)N[C@@H](Cc2ccc(O)cc2)C(=O)N(C)[C@@H](C)C(=O)N[C@@H](CC(N)=O)C(=O)N2CCC[C@H]2C(=O)N[C@@H](CN)C(=O)N[C@@H](CC(C)C)C(=O)N2C[C@H](O)C[C@H]2C(=O)N[C@@H](Cc2c[nH]c3ccccc23)C(=O)N[C@@H](CO)C(=O)N[C@@H](Cc2csc3ccccc23)C(=O)N1C
Result: 4.78 to 72.9 nM
--
Compound: CCCC[C@H]1C(=O)N(C)[C@@H](CCCC)C(=O)N[C@@H](CCCNC(=N)N)C(=O)NC(C(=O)NCC(N)=O)CCSCC(=O)N[C@@H](Cc2ccc(O)cc2)C(=O)N(C)[C@@H](C)C(=O)N[C@@H](CC(N)=O)C(=O)N2CCC[C@H]2C(=O)N[C@@H](Cc2cnc[nH]2)C(=O)N[C@@H](CC(C)C)C(=O)N2CCC[C@H]2C(=O)N[C@@H](Cc2c[nH]c3ccccc23)C(=O)N[C@@H](CO)C(=O)N[C@@H](Cc2c[nH]c3ccccc23)C(=O)N1C (stereo partly shown) [Example 9019] ({CH2CO}-Y[NMeA]NPHLPWSW[NMeNle][NMeNle]R[ξhCys]G-NH2; thioether N-14)
Result: > 74.3 nM
--
Compound: CCCC[C@H]1C(=O)N(C)[C@@H](CCSC)C(=O)N[C@@H](CCCNC(=N)N)C(=O)NC(C(=O)NCC(N)=O)CSCC(=O)N[C@@H](Cc2ccc(O)cc2)C(=O)N(C)[C@@H](C)C(=O)N[C@@H](CC(N)=O)C(=O)N2CCC[C@H]2C(=O)N[C@@H](CN)C(=O)N[C@@H](CC(C)C)C(=O)N2CCC[C@H]2C(=O)N[C@@H](Cc2c[nH]c3ccccc23)C(=O)N[C@@H](CO)C(=O)N[C@@H](Cc2csc3ccccc23)C(=O)N1C (stereo partly shown) [Example 9082] ({CH2CO}-Y[NMeA]NP[Dap]LPWS[Bta][NMeNle][NMeM]R[ξC]G-NH2; thioether N-14)
Result: 0.158 to 4.71 nM
--
Compound: CCCC[C@H]1C(=O)N(C)[C@@H](CCCC)C(=O)N[C@@H](CO)C(=O)NC(C(=O)NCC(N)=O)CSCC(=O)N[C@@H](Cc2ccc(O)cc2)C(=O)N(C)[C@@H](C)C(=O)N[C@@H](CC(N)=O)C(=O)N2CCC[C@H]2C(=O)N[C@@H](Cc2cnc[nH]2)C(=O)N[C@@H](CC(C)C)C(=O)N2C[C@H](O)C[C@H]2C(=O)N[C@@H](Cc2c[nH]c3ccccc23)C(=O)N[C@@H](CO)C(=O)N[C@@H](Cc2c[nH]c3ccccc23)C(=O)N1C (stereo partly shown)
Result: 0.158 to 4.71 nM
